Experiment: clinical
Conditions: human, in vivo, topical or ocular, plasma oxybutynin concentration, additional subject (one), two 10 cm^2 systems on inner thigh; after 9 hours
Experimental readout: concentration at 9 h (ng/mL)
Write the value in ng/mL as a bare number.

Which concentration at 9 h is reported for this compound? CCN(CC)CC#CCOC(=O)C(O)(c1ccccc1)C1CCCCC1 (stereo not shown)
2

###

Assay: clinical
Format: in vivo, human
Settings: human, in vivo, topical or ocular; system worn for 24 hours; read-out: time of peak blood concentrations
Experimental readout: Tmax

Which Tmax is reported for this compound? CCN(CC)CC#CCOC(=O)C(O)(c1ccccc1)C1CCCCC1 (stereo not shown)
~3 h

Source: patent US5411740A
